System: OVCAR-5
PROTOCOL_SUMMARY: NCI tumour cell line growth inhibition, 48 h
Calls of active or inactive are those of the source. Cut-off read from the data, not from the text of the source: active = GI50 up to about 1.1 µM and inactive = higher.
Classes used: t = active, f = inactive

COC(=O)C1=C(O)c2cc3c(cc2[C@H](c2cc(OC)c(OC)c(OC)c2)C1)OCO3 | f
COc1ccc(Oc2ccc3cc4c(cc3c2O)OCO4)c2cc(C)oc12 | f
Fc1cccc(C2ON=C(c3ccccc3)N2C23CC4CC(CC(C4)C2)C3)c1 (configuration not stated) | f
Nc1cc(O)c2cc(/N=N/c3ccc(/N=N/c4ccc(/N=N/c5ccc6cc(S(=O)(=O)O)cc(S(=O)(=O)O)c6c5)c5ccccc45)c4cc(S(=O)(=O)O)ccc34)c(S(=O)(=O)O)cc2c1 | f
COc1cc2c(c(OC)c1OC)-c1ccc(OC)c(=O)cc1C(NC(=O)COc1ccccc1)CC2 (configuration not stated) | t
CNC(=O)OCc1nc(SC(C)C)n(C)c1COC(=O)NC | f
COc1ccc(CC2(O)C3CC4CCC2C4C3)cc1 (configuration not stated) | f
CC(=O)C1(O)Cc2c(O)c3c(c(O)c2C(OC2CC(N)C(O)C(C)O2)C1)C(=O)c1ccccc1C3=O (configuration not stated) | t
O=C(OCC(Cl)(Cl)Cl)O[C@@H]1CCCC1(c1ccccc1)c1ccccc1 | f
O=C1c2cc(Cl)ccc2-n2c(noc2=O)C2CSCN12 (configuration not stated) | f
O=C(Nc1ccn(C2CC(O)C(COC(c3ccccc3)(c3ccccc3)c3ccccc3)O2)c(=O)n1)c1ccccc1 (configuration not stated) | f
O=c1c2ccccc2nc(Cc2nc(-c3ccc(Cl)cc3)cs2)n1-c1ccc(Cl)cc1 | f
COc1ccc(-n2c(-c3ccccc3)cc(-c3cccs3)c2-c2cccs2)cc1 | f
S=C(N/N=C/c1ccccn1)N1CCCCCC1 | t
O=C(O)CCCCCCC[C@H]1S[C@H]1CCCCCCO | f
CN/N=C(/CC(=O)c1sc(-n2nc(-c3ccccc3)cc2-c2ccccc2)nc1C)C(=O)Nc1ccc(Cl)c(Cl)c1 | f
COc1ccccc1C[C@@H]1OC2(C=CC(=O)C=C2)O[C@H]1Cc1ccccc1OC | f
O=C1C2C(C(=O)N1c1ccccc1)C1([N+](=O)[O-])C=C3c4ccccc4N(C(=O)c4ccccc4)C32C2C(=O)N(c3ccccc3)C(=O)C21 (configuration not stated) | f
Cc1cn2c(/C=N/NC(=N)N)c(-c3ccc(Cl)c([N+](=O)[O-])c3)nc2s1 | f
Cc1c(C(=O)/C=C/c2ccccc2)[n+]([O-])c2ccccc2[n+]1[O-] | f
Oc1ccc(-c2c3c(nc4c2CCc2ccc(Br)cc2-4)-c2cc(Br)ccc2CC3)cc1 | f
CC(C)(C)OC(=O)NC(CSSCC(NC(=O)OC(C)(C)C)C(=O)O)C(=O)O (configuration not stated) | f
COc1ccc2c(c1O)[C@@]13CCCC=C1[C@@H](C2)[N+](C)(C)CC3 | f
Nc1ccc(-c2nc3cc(F)ccc3s2)cc1 | f
COC(=O)[C@@]12C(=O)C=CC(=O)[C@@H]1C1C(=CC2COC(C)=O)O[C@@H]2OC3(CCCCC3)O[C@H]12 (some centres not stated) | f
CCN(c1n[n+]2c(-c3ccccc3)csc2s1)c1n[n+]2c(-c3ccccc3)csc2s1 | f
Cc1cccc(C)c1NC(=O)CCC(=O)/N=C(\N)NC#N | f
CCOC(=O)/C=C(\C(=O)OCC)n1ccc(=O)n(Cc2cnnn2CCCCOC(C)=O)c1=O | f
CC(=O)C1C(=O)C(=O)N(c2ccc(Cl)cc2C)C1=O (configuration not stated) | f
Cc1c(N2C(=O)/C(=C/c3ccc(Cl)cc3)N=C2c2ccccc2)c(=O)n(-c2ccccc2)n1C | f
N#CC(=S)Nc1ccc(F)cc1 | f
Cc1c(NC(=S)N/N=C\C(=N/NC(=S)Nc2c(C)n(C)n(-c3ccccc3)c2=O)c2ccccc2)c(=O)n(-c2ccccc2)n1C | f
NC(=O)Cn1c(=O)oc2cc(C(=O)CN3CCOCC3)ccc21 | f
CC(=O)NC1C(OCc2ccccc2)OC(COC(=O)CCCCCCCCCCNC(=O)CCNc2ccc([N+](=O)[O-])c3[nH]c4ccc(O)cc4c(=O)c23)C(O)C1OC(C)C(=O)N[C@H](C(=O)N[C@H](CCC(=O)O)C(N)=O)C(C)C (some centres not stated) | f
O=C1NC2(CN3CCC2CC3)C(=O)N1CN(Cc1ccccc1)c1ccccc1 (configuration not stated) | f
c1ccc(OCCSCCCCCCCCCCSCCOc2ccccc2)cc1 | f
Cc1ccc(S(=O)(=O)NC(=O)C2=C(c3ccccc3)[N-]N(C)c3nc4cccc[n+]4nc32)cc1 | f

Values from ChEMBL document CHEMBL1201862
